# procedure-text: Quantitative highthroughput screen to assess conditional lethalithy of NOMO1 cells grown in RPMI1640 with dialyzed fetal bovine serum (RPMI+ds) (AID 1963877); further: nearly all actives have a fitted effect of over 30% in size; further: potency means the concentration at half of the fitted maximal effect
# condition-info: NOMO1 in RPMI+dialyzed FBS viability, ATP luminescence, 48 h; series mostly up to 45.8 µM
Results filed as inconclusive are left out. The source made the active and inactive calls. The call rests on the fitted dose curve; in most records, active means well fitted cell-killing curve with a large enough effect; inconclusive means small, poorly fitted or top-dose-only effect; inactive means flat fitted curve, though single readings scatter.
property-label: Potency

1. O=C(NC[C@H](O)CN1CCc2ccccc2C1)c1cc(NC2COC2)ncn1 : inactive
2. CC(=O)N(C)C1(c2ccccc2)CCN(CCC[C@]2(c3ccc(Cl)c(Cl)c3)CCCN(C(=O)c3ccccc3)C2)CC1 : 1870 nM (active)
3. CNc1nc(Nc2ccc(C(=O)N3CCOCC3)cc2OC)ncc1Cl : inactive
4. c1cc(-c2cnn3cc(-c4ccc(OCCN5CCCCC5)cc4)cnc23)ccn1 : inactive
5. CC(C)(Sc1ccc(CCN(CCCCC2CCCCC2)C(=O)NC2CCCCC2)cc1)C(=O)O : inactive
6. CC12CC3CC(C)(C1)CC(N)(C3)C2 : 18700 nM (active)
7. Fc1ccc(CNc2ncnc3ccc(F)cc23)cc1 : inactive
8. Nc1ncnc2ccccc12 : inactive
9. O=C(Nc1ccc(F)c(C(F)(F)F)c1)Nc1nnc(-c2ccncc2)s1 : inactive
10. CC1(C)CC(=O)c2c(C(F)(F)F)nn(-c3ccc(C(N)=O)c(NC4CCC(OC(=O)CN)CC4)c3)c2C1 (stereo not given) : 296 nM (active)

These measurements were taken from PubChem BioAssay (NCATS).
